This collection of values is drawn from PubChem BioAssay AID1044.

target: Sphingosine 1-phosphate receptor 1 (Homo sapiens) (UniProt P21453)
Sequence (P21453 whole entry, looked up): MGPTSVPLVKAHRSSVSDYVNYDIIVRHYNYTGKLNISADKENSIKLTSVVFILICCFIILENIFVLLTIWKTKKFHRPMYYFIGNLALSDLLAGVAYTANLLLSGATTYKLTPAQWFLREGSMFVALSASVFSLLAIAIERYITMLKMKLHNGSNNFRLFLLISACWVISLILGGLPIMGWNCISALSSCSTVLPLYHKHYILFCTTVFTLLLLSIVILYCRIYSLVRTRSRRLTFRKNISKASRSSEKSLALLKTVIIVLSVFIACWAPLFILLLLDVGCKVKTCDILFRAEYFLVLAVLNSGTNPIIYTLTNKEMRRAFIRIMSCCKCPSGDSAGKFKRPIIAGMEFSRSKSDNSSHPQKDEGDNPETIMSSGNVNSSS
test-description: activates the human S1P1 receptor (AID 1044)
assay-conditions: S1P1 agonist cell-based reporter assay; at 4.5 µM; stronger effect = higher value
About 240 (1.5%) of roughly 16,000 compounds were called active. The entries come from a sample that favours actives as a whole.
readout-name: activation (%)
A number alone suffices; assume %.

compound	activation (%)
CCO/N=C\c1nn(S(C)(=O)=O)cc1Br	-3.43
CCOc1ccc(NC(=S)N2CCC(c3ccccc3OC)CC2)cc1	-5.17
CCOC(=O)NN(C(=O)OCC)c1c(C)c(C)c(C)c(C)c1C	6.8

Give activation only, for "FC(F)(F)C1=CC=NCCN1" , using Sphingosine 1-phosphate receptor 1 (Homo sapiens) (UniProt P21453) data.
1.36

Provide activation, tested on Sphingosine 1-phosphate receptor 1 (Homo sapiens) (UniProt P21453), for O=C(Nc1ccc(OCc2ccccc2)cc1)OCC1CN(Cc2ccccc2)CCO1 (stereo not given) .
43.9

Under Sphingosine 1-phosphate receptor 1 (Homo sapiens) (UniProt P21453), report activation for "O=C(c1cnn(-c2ccc(Cl)cc2)n1)c1cccs1"
3.48

State recorded activation with Sphingosine 1-phosphate receptor 1 (Homo sapiens) (UniProt P21453), entry "COC(=O)CCN1CCc2cc(N=Nc3ccc(C(F)(F)F)cc3)ccc21" , no comment.
99.2

Name the recorded activation of "Nc1[nH]c(=O)nc2nc[nH]c12" , assay system Sphingosine 1-phosphate receptor 1 (Homo sapiens) (UniProt P21453).
-5.12

Give measured activation for "COC(OC)c1ccc(C#N)c(SCC(=O)Nc2ccc(C(F)(F)F)cc2)n1" (Sphingosine 1-phosphate receptor 1 (Homo sapiens) (UniProt P21453)).
-16.6

Give activation only, for "O/N=C(\c1ccccc1)c1ccccn1" , using Sphingosine 1-phosphate receptor 1 (Homo sapiens) (UniProt P21453) data.
-7.69

Using Sphingosine 1-phosphate receptor 1 (Homo sapiens) (UniProt P21453) as the test system, report measured activation of "COC(=O)c1sccc1Oc1ccc(Cl)cc1[N+](=O)[O-]" .
13.2
